These entries and their values trace back to patent US20260285853A1.

system: HTT mRNA; experiment: Splicing RT-qPCR assay (THP), Table 2A; format: cell-based; conditions: Table 2A (THP), CJ mRNA decrease, read-out: HTT CJ (decrease in canonical junction mRNA, IC50)
// values below are reported IC50
PROPERTY_MEASURED: IC50

INSERT INTO measurements (compound, property_measured, meas_value) VALUES
  ('Cc1cn2cc(NC(=O)c3ccc(N4C[C@H](C)N[C@@H](C)C4)c4cn(C)nc34)nc2c(C)n1 [Compound 549]', 'IC50', '> 10 µM'),
  ('COc1cc2nn(C)cc2cc1NC(=O)c1c(F)cc(N2CCC(NC3CC3)CC2)c2cn(C)nc12 [Compound 396]', 'IC50', '0.1 to 1 µM'),
  ('Cn1cc2c(N3CCC(NC4CC4)CC3)cc(F)c(C(=O)Nc3cccnc3O)c2n1 [Compound 411]', 'IC50', '1 to 10 µM'),
  ('Cc1cn2cc(NC(=O)c3c(F)cc(N4CCC(NC5CC5)CC4)c4cn(C)nc34)nc(-n3ccccc3=O)c2n1 [Compound 427]', 'IC50', '> 10 µM');
